System: HT29
SETTINGS: 72 h, relative to DMSO; 10 µM
Counter-ions that a name gives are not always drawn.
VALUE TYPE: Relative cell viability (%) (%)
Please give a number only; it is taken to be in %.

Example cases with answers are listed next.
COc1ncc(-c2ccc3nccc(-c4ccnnc4)c3c2)cc1NS(=O)(=O)c1ccc(F)cc1F; 12.62
CCCN[C@H]1CCc2nc(N)sc2C1 [Pramipexole dihydrochloride monohydrate]; 205.2
C=CN1CCCC1=O; 91.88

Give the observed Relative cell viability (%) of CCCCCCCCc1ccc(CCC(N)(CO)CO)cc1 [Fingolimod (FTY720) HCl] for HT29.
0

Give the observed Relative cell viability (%) of C[C@H](CCC(=O)O)[C@H]1CC[C@H]2[C@@H]3[C@H](O)C[C@@H]4C[C@H](O)CC[C@]4(C)[C@H]3CC[C@]12C for HT29.
60.17

Give the observed Relative cell viability (%) of COC(=O)Nc1nc2ccc([S+]([O-])c3ccccc3)cc2[nH]1 (stereo not shown) for HT29.
57.63
